System: UACC-62 melanoma
Assay: NCI tumour cell line growth inhibition, 48 h; in the data active = GI50 below about 0.43 µM; inactive = the rest
Permitted responses: active, inactive

IN: Please state the recorded outcome for this compound: COc1cc(O)c2c3c(ccnc13)-c1ccccc1N2
OUT: inactive

IN: Please state the recorded outcome for this compound: CCn1cc(C2NC(=O)c3ccccc3N2)c2cccc(C)c21 (configuration not stated)
OUT: active

IN: Please state the recorded outcome for this compound: O=C(O)c1ccc2nc(-c3ccc(OCCCCCOc4ccc(-c5nc6ccc(C(=O)O)cc6[nH]5)cc4)cc3)[nH]c2c1
OUT: inactive

IN: Please state the recorded outcome for this compound: Cn1ccnc1C(=O)/C=C/c1ccc(C(=O)Nc2ccc(F)cc2)cc1
OUT: inactive

IN: Please state the recorded outcome for this compound: O=C1/C(=C/c2ccc(Cl)cc2Cl)CN(S(=O)(=O)c2ccccc2)C/C1=C\c1ccc(Cl)cc1Cl
OUT: inactive

IN: Please state the recorded outcome for this compound: COc1ccc(-c2nc(S(=O)(=O)c3ccccc3)c(S(=O)CC(=O)N3CCC(C)CC3)o2)cc1 (configuration not stated)
OUT: inactive

IN: Please state the recorded outcome for this compound: O=C1Nc2ccccc2/C1=C/C(=N/c1nnc(-c2ccc(Cl)cc2)s1)c1ccccc1
OUT: inactive

###

Assign TGI to each entry below.
System: M14 melanoma
Assay: NCI tumour cell line growth inhibition, 48 h

IN: Query (molecule): COc1ccc(NC(C)=O)cc1N1C(=O)/C(=C\c2cccc(Oc3ccccc3)c2)S(=O)(=O)C1c1ccccc1 (stereo unspecified) ; field requested: TGI
OUT: > 100 µM

IN: Query (molecule): O=C1/C(=C\c2cccc(Oc3ccccc3)c2)S(=O)(=O)C(c2ccccc2)N1c1cc(Cl)ccc1Cl (stereo unspecified) ; field requested: TGI
OUT: 44.1 µM

IN: Query (molecule): CC1(C)CCCC2(C)[C@@H]1CC[C@@]13CC(=O)[C@@](C)(CC[C@@H]21)C3 (stereo partly specified) ; field requested: TGI
OUT: > 100 µM

IN: Query (molecule): Cc1ccc(NN=NCCCCN=NNc2ccc(C)cc2)cc1 ; field requested: TGI
OUT: > 100 µM

IN: Query (molecule): Cc1cc(Cc2c(C)c(C)c(Cc3cc(C)cc(C(C)(C)C)c3O)c(C)c2C)c(O)c(C(C)(C)C)c1 ; field requested: TGI
OUT: > 100 µM

IN: Query (molecule): CC(=O)COC(=O)CC(C)=O ; field requested: TGI
OUT: > 100 µM

IN: Query (molecule): COC(=O)C1CC2c3c(c4ccccc4n3C)CC(C1=O)N2C (stereo unspecified) ; field requested: TGI
OUT: > 100 µM

IN: Query (molecule): COP(=O)(OC)/C(=C\C1=CN(C(c2ccccc2)(c2ccccc2)c2ccccc2)CN1)NC=O ; field requested: TGI
OUT: 43.9 µM

IN: Query (molecule): O=C(C(Cl)Cl)N(O)c1ccccc1OCc1ccccc1 ; field requested: TGI
OUT: > 100 µM

IN: Query (molecule): COC(=O)C1C(O)C(C)C(O)C(C)(O)C=C(C)C2=C3C(=C(C)C(=O)c4c(O)c(c(C)c(OC(C)=O)c43)NC(=O)C(C)=C/C=C\C(C)(O)C(O)C(C)C1O)OCO2 (stereo unspecified) ; field requested: TGI
OUT: > 100 µM

IN: Query (molecule): COC(=O)C12C3C4C1C1C2C3C41C(=O)NC(C)(C)CC(=O)O (stereo unspecified) ; field requested: TGI
OUT: > 100 µM

IN: Query (molecule): N#Cc1cc2c(cc1Cl)SC(=Nc1ccccc1)N(S(=O)(=O)c1ccc(Cl)cc1)S2(=O)=O ; field requested: TGI
OUT: 24.8 µM

IN: Query (molecule): c1ccc(-c2n(Cc3ccc4ccccc4n3)cc[n+]2Cc2ccc3ccccc3n2)cc1 ; field requested: TGI
OUT: 11.5 µM

IN: Query (molecule): COc1cc(/C=N/NC(=O)c2c(Cl)c(Cl)c(Cl)c(Cl)c2-c2nc3ccccc3[nH]2)ccc1O ; field requested: TGI
OUT: 90.9 µM

IN: Query (molecule): c1ccc(-c2ccc(-c3ccc(C4=NCCN4)cc3)o2)cc1 ; field requested: TGI
OUT: 3.1 µM

IN: Query (molecule): C=C1C(=O)O[C@@H]2C[C@@H]3[C@]4(CC[C@]5(C)[C@@H]([C@H](C)CC/C=C(\C)C=O)CC[C@@]35C)C[C@]4(CCC(=O)OC)[C@H]12 ; field requested: TGI
OUT: 2.91 µM

IN: Query (molecule): COc1cc2c(cc1O)[C@@]1(Cc3ccc(OC)c(OC)c3)CCC(=O)N1CC2 ; field requested: TGI
OUT: > 100 µM

IN: Query (molecule): COc1ccc2c(c1)CCc1cc(C(N)=O)c3nnnn3c1-2 ; field requested: TGI
OUT: > 100 µM

IN: Query (molecule): O=C(O)C1Cc2c([nH]c3ccccc23)C(CCCCO)N1 (stereo unspecified) ; field requested: TGI
OUT: > 100 µM

IN: Query (molecule): Cc1cc2nc3[nH]c4c(Cl)cc(Cl)cc4c3nc2cc1C ; field requested: TGI
OUT: > 100 µM

IN: Query (molecule): COc1ccc2c(c1)c(-c1nonc1-c1cn(C)c3ccccc13)cn2C ; field requested: TGI
OUT: > 100 µM

The origin of these recorded values is PubChem BioAssay (NCI).
